- System: MS2 coat protein
- PROCEDURE DETAILS: apparent Kd, MS2 coat protein; higher = weaker binding; RNA-MaP array; tryptophan 2.4 mM where present
- MEASUREMENT CONTEXT: designed as: ON switch for tryptophan; no ligand
REPORTED PROPERTY: apparent Kd (nM)
// return numeric value only (unit: nM, not printed)

Below, each entry is followed by its recorded apparent Kd result.
SEQ STRING	SYSTEM NAME	apparent Kd / nM
AGUUAUUCGAACAUGGUUGACGAGUGGCAACGAGGACCGGUACGGCCGCCACUCGAAUAAACAUGAGGAUCACCCAUGUACAAAU	MS2 coat protein	342
GGAGUAGAUGCGGCCGCCACUUUCUCAAGACACUACAUGAGGAUCACCCAUGUCCAUUCUACACUAAGGACCGGGCAUCCCAUGG	MS2 coat protein	54.3
UCGUUUUAGUCGGCCGCCACUGUAUGCAUGUUUAACAUGAGGAUCACCCAUGUCCCGUUCUAUUUCAGGACCGGGACGUAAUCGA	MS2 coat protein	525
GCUAGGUCAUCGGCCGCCACUAUUAGUGGUUCGAACAUGAGGAUCACCCAUGUGCCACAUGCGCAUAGGACCGGGAUGACCUAGC	MS2 coat protein	12.7
AGUUACUCGAACAUGGUUGACGAGUGGCAACGAGGACCGGUACGGCCGCCACUCGAAUAAACAUGAGGAUCACCCAUGUACAAAU	MS2 coat protein	135
GGUUACUCUACGGCCGCCACUGAUAAAUAAUAAACCUGUACAUAAACAUGAGGAUCACCCAUGUACAGGACCGGGUAGUGUAACC	MS2 coat protein	32.8

Kindly state the measured apparent Kd obtained for "AACAUGAGGAUCACCCAUGUCCCAUGUGAACGAGGACCGGUACGGCCGCCACUCGACUGAGGCGGCACAUGAGGAUCACCCACAU" with MS2 coat protein.
170

Return apparent Kd measured with MS2 coat protein given this sequence: "ACAUUAGCCACGGCCGCCACUGCCUUAUGAUUAUAAGGAUUAAUGAACAUGAGGAUCACCCAUGUCAGGACCGGGUGCCUACCAU"
22

What reported apparent Kd corresponds to "UUUUACGGCGAUCUGGGUUUACCAGAUCGGCGAGGACCGGUACGGCCGCCACUCGUGUUUCUUUGACAUGAGGAUCACCCAUGUA" on MS2 coat protein?
26.9

Please state recorded apparent Kd (tested on MS2 coat protein) of "CCUCAAUAGACGGCCGCCACUGAGACAUGAGGAUACAUGAGGAUCACCCAUGUGGGUGUGUCACGCAGGACCGGGUCAAGACCCG"
523

API: value(readout=apparent Kd, system=MS2 coat protein) for record "AAUUAAACAUCGGCCGCCACUUACUCAUGAGGUAACAACAUGAGGAUCACCCAUGUUUGAGGAUCAAGGACCGGGAUGUAAUUUU"
29.8
